test system: A498 renal; experiment: NCI-60 one-dose screen, 48 h (100 = growth as untreated, 0 = no growth, -100 = all killed); conditions: 10 µM unless noted
Compounds without any hit were thinned out: in the full panel of roughly 83,000, 20% have a hit. Activity calls are given as the source filed them. How the source made its calls: active means growth percent below 10; inactive means the rest.
Please respond with reported growth for every item in the list.

Example entries begin here.
Oc1c(CCl)cc(Cl)cc1Cc1cc(Cl)cc(Cc2cc(Cl)cc(CCl)c2O)c1O    -4.67% (active)
COc1ccc(-c2cc(-c3nnc(SCC(=O)Nc4ccc(/C(C)=N\O)cc4)o3)c3ccccc3n2)cc1    101% (inactive)
CCCn1c2cc(OCc3cn(-c4ccc(Br)cc4)nn3)ccc2c2ccnc(C)c21    77.8% (inactive)

Look at each compound and report its growth.
1. COc1ccc(-c2nc(C#N)c(NCC(c3ccco3)N3CCCC3)o2)cc1 (stereo not given)
2. NC(N)=NC(N)=Nc1cc2ccccc2c2ccccc12
3. O=c1c2ccccc2oc2ccc(OCCCCCCN3CCCCCC3)cc12
4. N#Cc1ccc(C2C3=C(CCCC3=O)OC3=C2C(=O)c2ccccc2C3=O)cc1 (stereo not given)
5. COc1cc2c(cc1OC)C(Sc1ccc(Cl)cc1)c1c(nc(N)c(C#N)c1N)O2 (stereo not given)

Reply |
1: 42.6% (inactive); 2: 26% (inactive); 3: 70.2% (inactive); 4: 109% (inactive); 5: 66.4% (inactive)

List reported growth for each of these compounds:
1. COc1ccc(-c2cc(C(=O)N3N=C(c4ccc(N)cc4)CC3c3ccc(OC)cc3)c3cc(OC)ccc3n2)cc1 (stereo not given)
2. Cc1nccc2c3ccc(OCc4cn(-c5ccc(Cl)cc5)nn4)cc3n(CC(C)C)c12

Reply |
["71.3% (inactive)", "22.6% (inactive)"]

* * *

tested on: MCF7 breast; test: NCI-60 one-dose screen, 48 h; conditions: 10 µM unless noted
The panel holds about 83,000 compounds, 20% with a hit somewhere; the sample as a whole holds those more often. Activity calls are given as the source filed them. The calls were made as follows: active = growth percent below 10; inactive = the rest.
Tick one outcome: active, inactive

Past entries and their recorded results:
C=C1C(=O)O[C@H]2[C@H]1CCC(/C=N/c1ncc(Br)cc1N)=C\CC[C@@]1(C)O[C@@H]21    active
CC(=O)OC[C@]12CC[C@@H](c3cn(Cc4ccc(Cn5cc([C@@H]6CC[C@]7(COC(C)=O)CC[C@]8(C)[C@H](CC[C@@H]9[C@@]%10(C)CC[C@H](OC(C)=O)C(C)(C)[C@@H]%10CC[C@]98C)[C@@H]67)nn5)cc4)nn3)[C@@H]1[C@H]1CC[C@@H]3[C@@]4(C)CC[C@H](OC(C)=O)C(C)(C)[C@@H]4CC[C@@]3(C)[C@]1(C)CC2    inactive
COc1ccc2oc(=O)cc(-c3nc4ccc(N)cc4[nH]3)c2c1    inactive
Oc1c(CCl)cc(Cl)cc1Cc1cc(Cl)cc(Cc2cc(Cl)cc(CCl)c2O)c1O    active
Cc1[nH]c2ncnc(Oc3ccc(NC(=O)Nc4ccc(Cl)c(C(F)(F)F)c4)cc3)c2c1C    inactive

Ask | Any idea what this test logged for CCCCN(CCCC)CC(CN(CC)CC)OC(=O)Nc1ccccc1 (configuration not stated) ?
Reply | inactive

Ask | Same thing, different molecule: Nc1c(C(=O)Nc2cccc3ccccc23)sc2nc3c(cc12)CCCCC3
Reply | inactive

Provenance of the data: PubChem BioAssay (NCI)
